MIC values by entry
tested on: pathogenic bacteria; test: MIC by microdilution broth method (NCCLS M7-A4), in vitro antibacterial activity; type: cell-based; details: Streptococcus pneumoniae, Organism C: fluoroquinolone-resistant clinical isolate of Streptococcus pneumoniae (QRDR amino acid substitutions)
Structures can show the parent of a compound that is named as a salt.
measurementKind: MIC

[[record]]
molecule = "NC/C=C1\\CCCN(c2c(F)cc3c(=O)c(C(=O)O)cn(-c4nc(N)c(F)cc4F)c3c2Cl)C1"
val = "> 16 µg/mL"

[[record]]
molecule = "O=C(O)c1cn(C2CC2)c2nc(N3CCC(=C(Cl)CN4CCNCC4)CC3)c(F)cc2c1=O [Compound 292, Trifluoroacetic Acid Salt]"
val = "> 16 µg/mL"

[[record]]
molecule = "COc1c(N2CC(=C(C)CN)C2)c(F)cc2c(=O)c(C(=O)O)cn(C3CC3)c12"
val = "> 16 µg/mL"


Data credit: patent US20090156577A1
